Hi, quick share: literature Ki data for Human PKK (Homo sapiens), several sources combined.
TEST READOUT: Ki (pM)

Cc1nc(N2CC3CC3C2)ccc1Cn1cc(C(=O)NCc2cc(Cl)ccc2-n2cnnn2)cn1 (stereo not drawn) : 300
Cc1nc(N2CCC3(CC3)C2)ccc1Cn1cc(C(=O)N[C@@H]2CCc3c2ccnc3N)cn1 : 1100
Cc1nc(N2CC(C)(C)C2)ccc1Cn1cc(C(=O)N[C@@H]2CCc3c2n[nH]c3C)cn1 : 1000
Cc1cc2c(c(N)n1)CC[C@H]2NC(=O)c1cnn(Cc2ccc(N3CC4CC4C3)nc2C)c1 (stereo partly drawn) : 300
Cc1ccc(-n2cnnn2)c(CNC(=O)c2cnn(Cc3ccc(N4CC5CC5C4)nc3C)c2)c1 (stereo not drawn) : 400
Cc1nc(N2CCC3(CCC3)C2)ccc1Cn1cc(C(=O)N[C@@H]2CCc3c2n[nH]c3C)cn1 : 1000
Cc1nc(N2CC3CC3C2)ccc1Cn1cc(C(=O)NCc2cc(Cl)ccc2-n2cnnn2)c(-c2cnn(C)c2)n1 (stereo not drawn) : 1000
Cc1nc(N2C[C@@H]3[C@H](C)[C@@H]3C2)ncc1Cn1cnc(C(=O)N[C@@H]2CCc3c2n[nH]c3C)c1 : 2000

(A) COCc1nn(Cc2ccc(N3CC4C(C3)C4(F)F)nc2C)cc1C(=O)N[C@@H]1CCc2c(C)n[nH]c21 (stereo partly drawn)
(B) Cc1nc(N2CC3CC3C2)ccc1Cn1cc(C(=O)N[C@@H]2CCc3c2ccnc3N)nn1 (stereo partly drawn)
(C) Cc1nc(N2CC3CC3C2)ccc1Cn1cc(C(=O)NCc2cc(Cl)ccc2-n2cnnn2)c(C(F)F)n1 (stereo not drawn)
Order by Ki, ascending. Quick reminder: the answer is the labels in the order asked.
A, B, C

(A) Cc1nc(N2CC3(CCC3)C2)ccc1Cn1cc(C(=O)NCc2cc(Cl)ccc2-n2cnnn2)cn1
(B) O=C(NCc1cc(Cl)ccc1-n1cnnn1)c1cn(Cc2ccc(N3CC4CC4C3)nc2)nc1C(F)F (stereo not drawn)
// compare measured Ki, left A , right B , return larger Output the label that corresponds to your choice.
B

(1) Cc1nc(N2CC3CC3C2)ccc1Cc1cc(C(=O)N[C@@H]2CCc3c(C)n[nH]c32)sc1C#N (stereo partly drawn)
(2) Cc1nc(N2CCCC2)ccc1Cn1cc(C(=O)N[C@@H]2CCc3c2n[nH]c3C)cn1
Just tell me: smaller Ki value, 1 or 2 ? Output the label that corresponds to your choice.
2

###

Hi, quick share: literature Ki data for Human PKK (Homo sapiens, UniProt P03952), several sources combined.
TEST READOUT: Ki (nM)

Cc1cc2c(c(N)n1)CC[C@H]2NC(=O)c1cn(Cc2ccc(N3CC4CC4C3)nc2C)nc1C (stereo partly drawn) : 0.4
Cc1nc(N2CC3C(C2)C3(F)F)ccc1Cn1cc(C(=O)N[C@@H]2CCc3c(C)n[nH]c32)cn1 (stereo partly drawn) : 0.3
Nc1nn(Cc2ccc(N3CC4CC4C3)nc2)cc1C(=O)NCc1cc(Cl)ccc1-n1cnnn1 (stereo not drawn) : 0.4

###

Hi, quick share: literature Ki data for Human PKK (Homo sapiens, UniProt P03952), several sources combined.
TEST READOUT: Ki (nM)

COc1nn(Cc2ccc(N3CC4CC4C3)nc2)cc1C(=O)NCc1cc(Cl)ccc1-n1cnnn1 (stereo not shown) : 0.7
Cc1nc(N2CC(C)(F)C2)ccc1Cn1cc(C(=O)N[C@@H]2CCc3c2n[nH]c3C)cn1 : 4
Cc1nc(N2CCC3(CCC3)C2)ccc1Cn1cc(C(=O)NCc2cc(Cl)ccc2-n2cnnn2)cn1 : 2
Cc1nc(N2CC3CC3C2)ccc1Cn1cc(C(=O)N[C@@H]2CCc3c(C)n[nH]c32)c(C(F)F)n1 (stereo partly shown) : 0.1

(a) Cc1nc(N2CC3C(C2)C3(F)F)ccc1Cn1cc(C(=O)N[C@@H]2CCc3c2ccnc3N)c(C(F)(F)F)n1 (stereo partly shown)
(b) Cc1nc(N2CC3CC3C2)ccc1Cn1cc(C(=O)N[C@@H]2CCc3c2n[nH]c3C)nc1C1CC1 (stereo partly shown)
(c) Cc1[nH]nc2c1CC[C@H]2NC(=O)c1cn(Cc2ccc(N3CC4CC4C3)nc2)cn1 (stereo partly shown)
Order by Ki, ascending. Quick reminder: the answer is the labels in the order asked.
b, a, c
